Species: Rattus norvegicus
Test: Open TG-GATES - Regimen: Daily Repeat
Type: toxicity, organism-based, Sprague-Dawley
Set-up: regimen Daily Repeat, gender Male, age 6 weeks
Conditions: in vivo, po, 0 mg/kg, 72 h, tissue Kidney, route gavage, dose level Control, time 3 day
The reader will find reported KIDNEY_R values listed item by item below.
Reply numerically in g, unit not repeated.

compound	KIDNEY_R, g
C[C@H]1C(=O)O[C@@H]2CCN3CC=C(COC(=O)[C@](C)(O)[C@]1(C)O)[C@H]23 [MONOCROTALINE]	1

Determine its reported KIDNEY_R: O=C1CN(/N=C/c2ccc([N+](=O)[O-])o2)C(=O)N1 [NITROFURANTOIN]
1.1

Specify KIDNEY_R for OCCN1CCN(CCCN2c3ccccc3Sc3ccc(C(F)(F)F)cc32)CC1 [FLUPHENAZINE] and stop.
1.1

Read off the recorded KIDNEY_R for C[C@H]1O[C@H](O[C@H]2[C@H](O)[C@@H](O)[C@@H](O[C@H]3[C@H](O)[C@@H](O)C(O)O[C@@H]3CO)O[C@@H]2CO)[C@H](O)[C@@H](O)[C@@H]1N[C@H]1C=C(CO)[C@@H](O)[C@H](O)[C@H]1O (stereo partly specified) [ACARBOSE]
1

// fetch KIDNEY_R given entry CCOC(=O)C(C)(C)Oc1ccc(Cl)cc1 [CLOFIBRATE]
1.1

Output measured KIDNEY_R for this item: Cc1cccc(C)c1OCC(C)N (stereo unspecified) [MEXILETINE]
1.1

----------
# Neu per record follows
Species: Rattus norvegicus
Test: Open TG-GATES - Regimen: Daily Repeat
Assay type: toxicity, organism-based, Sprague-Dawley
Set-up: regimen Daily Repeat, gender Male, age 6 weeks
Details: in vivo, po, 0 mg/kg, 72 h, tissue Blood, route gavage, dose level Control, time 3 day
Enter your answer as a number in %; do not include the unit.

Some solved cases for reference:
compound	measured_value
O=C1CN(/N=C/c2ccc([N+](=O)[O-])o2)C(=O)N1	13.8
O=[N+]([O-])c1ccc(O)c([N+](=O)[O-])c1	19.8
C=C(C)[C@H]1Cc2c(ccc3c2O[C@@H]2COc4cc(OC)c(OC)cc4[C@@H]2C3=O)O1	14
OCCN1CCN(CCCN2c3ccccc3Sc3ccc(C(F)(F)F)cc32)CC1	15

Next up:
Given CCOC(=O)C(C)(C)Oc1ccc(Cl)cc1 [CLOFIBRATE] , respond with its Neu.
20.2

----------
Species on record: Rattus norvegicus
Experiment: Open TG-GATES - Regimen: Daily Repeat
Assay type: toxicity, organism-based, Sprague-Dawley
Parameters: regimen Daily Repeat, gender Male, age 6 weeks
Settings: in vivo, po, 0 mg/kg, […], tissue Plasma, route gavage, dose level Control, time 28 day
Parameter: RALB. Scope: all listed entries.
Numeric only. Scale: g/dL

compound	unit_descriptor	RALB
Cn1cc[nH]c1=S	g/dL	3.2
C[C@H]1C(=O)O[C@@H]2CCN3CC=C(COC(=O)[C@](C)(O)[C@]1(C)O)[C@H]23	g/dL	3.2
O=C1CN(/N=C/c2ccc([N+](=O)[O-])o2)C(=O)N1	g/dL	3.4

// next entry
Give me measured RALB, please, for this compound: Cc1cccc(C)c1OCC(C)N (centres undefined)
3

----------
Species on record: Rattus norvegicus
Assay: Open TG-GATES - Regimen: Daily Repeat
Type: toxicity, organism-based, Sprague-Dawley
Design: regimen Daily Repeat, gender Male, age 6 weeks
Details: in vivo, po, 0 mg/kg, 72 h, tissue Plasma, route gavage, dose level Control, time 3 day
Listing of entries alongside the reported K.
Kindly provide the numeric value in meq/L only, without the unit symbol.

Illustrative cases are given below, each with its answer.
compound	K (meq/L)
C[C@H]1O[C@H](O[C@H]2[C@H](O)[C@@H](O)[C@@H](O[C@H]3[C@H](O)[C@@H](O)C(O)O[C@@H]3CO)O[C@@H]2CO)[C@H](O)[C@@H](O)[C@@H]1N[C@H]1C=C(CO)[C@@H](O)[C@H](O)[C@H]1O (some centres undefined)	4
Cn1cc[nH]c1=S	4.1

Output measured K for this item: "O=[N+]([O-])c1ccc(O)c([N+](=O)[O-])c1"
4.7

Output K of "OCCN1CCN(CCCN2c3ccccc3Sc3ccc(C(F)(F)F)cc32)CC1"
4.9

----------
Species: Rattus norvegicus
Experiment: Open TG-GATES - Regimen: Daily Repeat
Assay type: toxicity, organism-based, Sprague-Dawley
Design: regimen Daily Repeat, gender Male, age 6 weeks
Conditions: in vivo, po, 0 mg/kg, […], tissue Plasma, route gavage, dose level Control, time 14 day
endpoint_name: TBIL (mg/dL)
Field format: number, assumed mg/dL, no unit text.

Here's what some known entries look like.
compound	TBIL [mg/dL]
Cc1cccc(C)c1OCC(C)N (centres undefined)	0.004
C=C(C)[C@H]1Cc2c(ccc3c2O[C@@H]2COc4cc(OC)c(OC)cc4[C@@H]2C3=O)O1	0.03
Cn1cc[nH]c1=S	0.014

Please indicate TBIL recorded for "OCCN1CCN(CCCN2c3ccccc3Sc3ccc(C(F)(F)F)cc32)CC1"
0.3

----------
Organism: Rattus norvegicus
Test: Open TG-GATES - Regimen: Daily Repeat
Format: toxicity, organism-based, Sprague-Dawley
Design: regimen Daily Repeat, gender Male, age 6 weeks
Conditions: in vivo, po, 0 mg/kg, 72 h, tissue Blood, route gavage, dose level Control, time 3 day
Classification field: enter yes (1) for APTT values not below 20 s, no (0) for values below it.

Some solved entries appear below for comparison.
compound	discrete_label
C=C(C)[C@H]1Cc2c(ccc3c2O[C@@H]2COc4cc(OC)c(OC)cc4[C@@H]2C3=O)O1	no (0)
O=[N+]([O-])c1ccc(O)c([N+](=O)[O-])c1	no (0)
C[C@H]1C(=O)O[C@@H]2CCN3CC=C(COC(=O)[C@](C)(O)[C@]1(C)O)[C@H]23	yes (1)
Cn1cc[nH]c1=S	yes (1)
O=C1CN(/N=C/c2ccc([N+](=O)[O-])o2)C(=O)N1	no (0)

Can "OCCN1CCN(CCCN2c3ccccc3Sc3ccc(C(F)(F)F)cc32)CC1" be said to have APTT at or above 20 s?
no (0)

Given the entry CCOC(=O)C(C)(C)Oc1ccc(Cl)cc1 [CLOFIBRATE] , answer whether its APTT meets or surpasses 20 s.
yes (1)

Form field: APTT at least 20 s? Entry: C[C@H]1O[C@H](O[C@H]2[C@H](O)[C@@H](O)[C@@H](O[C@H]3[C@H](O)[C@@H](O)C(O)O[C@@H]3CO)O[C@@H]2CO)[C@H](O)[C@@H](O)[C@@H]1N[C@H]1C=C(CO)[C@@H](O)[C@H](O)[C@H]1O (some centres undefined)
no (0)

----------
Species on record: Rattus norvegicus
Assay: Open TG-GATES - Regimen: Daily Repeat
Assay type: toxicity, organism-based, Sprague-Dawley
Set-up: regimen Daily Repeat, gender Male, age 6 weeks
Settings: in vivo, po, 0 mg/kg, […], tissue Blood, route gavage, dose level Control, time 7 day
// reported WBC for each item listed
Unit x10_2/uL implied. Number only.

Reference set, count: 4
molecule	unit_descriptor	WBC
Cn1cc[nH]c1=S [METHIMAZOLE]	x10_2/uL	112.3
O=C1CN(/N=C/c2ccc([N+](=O)[O-])o2)C(=O)N1 [NITROFURANTOIN]	x10_2/uL	123.7
CCOC(=O)C(C)(C)Oc1ccc(Cl)cc1 [CLOFIBRATE]	x10_2/uL	104.1
OCCN1CCN(CCCN2c3ccccc3Sc3ccc(C(F)(F)F)cc32)CC1 [FLUPHENAZINE]	x10_2/uL	114

Moving on to another molecule below.
Give WBC for C=C(C)[C@H]1Cc2c(ccc3c2O[C@@H]2COc4cc(OC)c(OC)cc4[C@@H]2C3=O)O1 [ROTENONE]
113.8

----------
Species: Rattus norvegicus
Experiment: Open TG-GATES - Regimen: Single
Format: toxicity, organism-based, Sprague-Dawley
Parameters: regimen Single, gender Male, age 6 weeks
Conditions: in vivo, po, 0 mg/kg, 6 h, tissue Blood, route gavage, dose level Control
endpoint_name: Bas (%)
Give the value in % but do not write % after it.

Item OCCN1CCN(CCCN2c3ccccc3Sc3ccc(C(F)(F)F)cc32)CC1 [FLUPHENAZINE] : provide Bas
0

----------
Organism: Rattus norvegicus
Assay: Open TG-GATES - Regimen: Daily Repeat
Type: toxicity, organism-based, Sprague-Dawley
Parameters: regimen Daily Repeat, gender Male, age 6 weeks
Details: in vivo, po, 0 mg/kg, […], tissue Plasma, route gavage, dose level Control, time 7 day
# gamma-GTP listing for each entry below
Answer with the figure and its unit, nothing else.

Worked cases, gamma-GTP given:
molecule	measured_value
CCOC(=O)C(C)(C)Oc1ccc(Cl)cc1 [CLOFIBRATE]	0.6 IU/L
C[C@H]1O[C@H](O[C@H]2[C@H](O)[C@@H](O)[C@@H](O[C@H]3[C@H](O)[C@@H](O)C(O)O[C@@H]3CO)O[C@@H]2CO)[C@H](O)[C@@H](O)[C@@H]1N[C@H]1C=C(CO)[C@@H](O)[C@H](O)[C@H]1O (some centres undefined)	1 IU/L
O=C1CN(/N=C/c2ccc([N+](=O)[O-])o2)C(=O)N1	0.6 IU/L

Below: the item to evaluate.
Given the molecule "C[C@H]1C(=O)O[C@@H]2CCN3CC=C(COC(=O)[C@](C)(O)[C@]1(C)O)[C@H]23" , write its reported gamma-GTP.
1 IU/L
